# Target under test: Von Hippel-Lindau disease tumor suppressor/Elongin B/Elongin C (Homo sapiens, UniProt P40337)
# Sequence (P40337 whole entry, looked up, the tested form may be a part): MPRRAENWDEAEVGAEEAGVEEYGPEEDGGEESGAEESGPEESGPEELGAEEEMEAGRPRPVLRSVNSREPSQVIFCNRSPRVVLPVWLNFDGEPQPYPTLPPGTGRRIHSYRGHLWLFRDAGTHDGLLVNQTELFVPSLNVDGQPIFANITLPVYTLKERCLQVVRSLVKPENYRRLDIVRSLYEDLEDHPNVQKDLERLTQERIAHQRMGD
# Experiment notes: Binding affinity to N-terminal His6 tagged VHL (54 to 213 residues)/ELoC (17 to 112 residues)/EloB (1 to 120 residues) (unknown origin) complex expressed in Escherichia coli BL21(DE3) assessed as dissociation constant by ITC method
Readout: Kd (mM)

1. O=C1CCSc2ccc(Cl)cc21 : 6.7
2. OCc1ccc(-n2cccc2)cc1 : 5
